experiment: Toxicity liver stage against HepG2, at 10uM; type: cell-based; set-up: test concentration 10 uM, cell line HepG2-A16-CD81EGFP; details: human, HepG2-A16-CD81EGFP cells; read-out: INHIBITION
measure.name: cytotoxicity at 10 µM (%)
Give your result in % as a bare value.

get_value(item= Cc1nc(CCNC(=O)N2CCC(Cc3cnn(C)c3)C2)cs1 (stereo not given) , readout=cytotoxicity at 10 µM) returns -6.13

get_value(item= "CCc1cnc(N2CC3(CCN(C(=O)c4ccoc4)C3)C2)nc1" , readout=cytotoxicity at 10 µM) returns -8.37

get_value(item= "CCN(CC)C(=O)c1ccc(Cl)c(NC(=O)c2cnc(C)cn2)c1" , readout=cytotoxicity at 10 µM) returns -0.273

get_value(item= Cc1cc(F)ccc1CCNC(=O)NCC(C)N1CCOCC1 (stereo not given) , readout=cytotoxicity at 10 µM) returns -1.35

get_value(item= "Cn1ccnc1COc1ccc(CN2CCN(CCO)CC2)cc1" , readout=cytotoxicity at 10 µM) returns -10.2
